B1: Pistol ribozyme (parent)
chain: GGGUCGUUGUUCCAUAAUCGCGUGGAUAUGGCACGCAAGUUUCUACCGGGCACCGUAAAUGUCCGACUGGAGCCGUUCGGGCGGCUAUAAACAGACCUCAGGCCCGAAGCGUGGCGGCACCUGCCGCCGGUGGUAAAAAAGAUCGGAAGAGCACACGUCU

- Variants of: B1
- TEST_DETAILS: aptazyme ON/OFF ratio, guanine; higher = stronger switching; co-transcriptional cleavage with and without guanine
OBSERVABLE: aptazyme ON/OFF ratio
Give bare numbers.

- VARIANT_CODE: "U8A G9A U10C C13A"
  aptazyme ON/OFF ratio: 1.06
- VARIANT_CODE: "U7C G9U U10C C12A C13A"
  aptazyme ON/OFF ratio: 1.09
- VARIANT_CODE: "U7C U8A C12A C13G"
  aptazyme ON/OFF ratio: 1.09
- VARIANT_CODE: "U7C U8C G9A U10A U11C C12A"
  aptazyme ON/OFF ratio: 1.37
- VARIANT_CODE: "U7G U8G U10C U11C C12A"
  aptazyme ON/OFF ratio: 1.41

Lab note: each variant below needs its aptazyme ON/OFF ratio filled in.
1. U7C U8A G9A U10G U11G C12A C13U
2. U8A G9C U10G U11A C13G

Solution:
1: 1.23; 2: 1.06

Data origin, for the record: the RNAGym collection of RNA variant scans (doi:10.1021/acssynbio.7b00057)
